- system: UniProt:P00797
- Sequence (P00797 whole entry): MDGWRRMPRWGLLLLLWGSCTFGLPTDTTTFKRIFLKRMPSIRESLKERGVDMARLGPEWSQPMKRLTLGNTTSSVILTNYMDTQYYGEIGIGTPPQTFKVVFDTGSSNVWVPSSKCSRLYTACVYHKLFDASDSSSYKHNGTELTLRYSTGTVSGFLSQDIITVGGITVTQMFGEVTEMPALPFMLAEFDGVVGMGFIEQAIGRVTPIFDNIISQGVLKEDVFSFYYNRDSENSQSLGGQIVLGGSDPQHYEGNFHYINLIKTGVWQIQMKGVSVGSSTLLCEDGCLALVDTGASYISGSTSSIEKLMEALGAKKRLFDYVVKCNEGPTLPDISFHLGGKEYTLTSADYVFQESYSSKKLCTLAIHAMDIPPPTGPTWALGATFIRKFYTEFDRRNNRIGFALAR
I'd appreciate it if you could supply IC50 values for the items below.
I'd appreciate it if you included the unit after the number.

Some solved cases for reference:
COc1ccccc1COCCCOc1ccc(N2C(=O)CNC[C@H]2COc2ccc3c(c2)N(CCCO)CCC3)cc1 : 0.035 µM
COCCCN1C(=O)CCc2ccc(OC[C@@H]3CNCC(=O)N3c3ccc(OCCCOCc4ccccc4OC)cc3)cc21 : 0.017 µM
COc1ccccc1COCCCOc1ccc(N2C(=O)CNC[C@@H]2COc2ccc3c(c2)NCCC3)cc1 : 0.12 µM

# next compound below
Please give the measured IC50 for this compound: COc1ccccc1COCCCOc1ccc(N2C(=O)CNC[C@H]2COc2ccc3c(c2)N(CCO)CCC3)cc1
0.033 µM
